- PROTOCOL: Toxicity liver stage against HepG2, at 10uM
- Format: cell-based
- Parameters: test concentration 10 uM, cell line HepG2-A16-CD81EGFP
- TEST_SETTINGS: human, HepG2-A16-CD81EGFP cells; read-out: INHIBITION
Reported cytotoxicity at 10 µM values follow for various compounds
Please give the number followed by its unit.

Worked examples follow.
Consider the compound CCOCC1CN(Cc2cnn(C)c2)Cc2ncn(C)c21 (stereo unspecified) and give its measured cytotoxicity at 10 µM.
-79.2%

Likewise for "Cc1cccc(NC(=O)c2[nH]nc(C(C)C)c2Br)n1" ?
-2.95%

Field entry: "Cc1noc(NC(=O)c2ccc(C)c(F)c2)n1"
-10.1%

Next entry: "CCn1cnnc1CNC(=O)c1ccc(Br)cc1F"
-18.2%

Input "CCC[C@H]1CN(S(=O)(=O)c2cc(C)ccc2C)C[C@@H]1N"
10.3%

Moving on to the next compound: Cc1ccnc(N2CCC(OCCN3CCCCC3)C2)n1 (stereo unspecified)
-49.4%

Then what about the compound "CCc1ccc(S(=O)(=O)N2CCN(CCn3ccnc3)CC2)cc1" ?
-8.81%

Same question for "Cc1ccc(C)c(OC2CCN(C(=O)NCC(=O)N3CCCC3)CC2)c1" please.
-5.75%

---
Reported cytotoxicity at 10 µM, compound Cc1nn(C)c(C)c1C1CCCN1Cc1noc(C2CC2)n1 (stereo unspecified) : ____
-6.95%

Now consider CCc1c(C(=O)NCC2CCS(=O)(=O)C2)cnn1-c1ccccc1 (stereo unspecified) and answer again.
-8.22%

"CS(=O)(=O)c1ccc2c(c1)N(C(=O)Cc1ccc(F)cc1)CCC2" , same question.
9.95%

Also, "CCOc1ccccc1C(=O)NS(=O)(=O)c1ccc2c(c1)OCCCO2" please.
5.04%

Then what about the compound Cc1nc(C2CCCN2Cc2nccn2CC(F)(F)F)no1 (stereo unspecified) ?
-16.5%
